# TARGET_DESC: E. coli FabI (Escherichia coli)
# note: exactly 70 µM is not below, so it is label 0; use label 1 for IC50 strictly under it

{"columns": ["COMPOUND", "CLASS_LABEL"],
 "data": [
  ["COc1cc(OC)c2c(O)c3c(c(-c4c(OC)cc5cc6oc(C)cc(=O)c6c(O)c5c4OC)c2c1)OC(C)(O)CC3=O (stereo not drawn) [Compound 4, Fonsecinone B]", "label 0"],
  ["COc1cc(OC)c2c(O)c3c(c(-c4c(OC)cc5cc(O)c6c(=O)cc(C)oc6c5c4OC)c2c1)OC(C)(O)CC3=O (stereo not drawn) [Compound 3, Fonsecinone C]", "label 1"],
  ["COc1cc(OC)c2c(c1)cc(O)c1c(=O)cc(C)oc12 [Compound 1, Flavasperone]", "label 0"],
  ["COc1cc(OC)c2c(O)c3c(=O)cc(C)oc3c(-c3c(OC)cc4cc5oc(C)cc(=O)c5c(O)c4c3OC)c2c1 [Compound 6, Aurasperone A]", "label 1"],
  ["COc1cc(OC)c2c(O)c3c(=O)cc(C)oc3c(-c3c(OC)cc4cc(O)c5c(=O)cc(C)oc5c4c3OC)c2c1 [Compound 2, Fonsecinone A]", "label 1"]
]}

====

# System: MRSA (S. aureus ATCC 43300)
# ASSAY_INFO: Broth microdilution MIC, MRSA ATCC 43300
# CONDITION_PARAMETERS: Staphylococcus aureus, ATCC43300|MRSA, 24 h, read-out: Minimum inhibitory concentrations, S. aureus ATCC 43300
compounds and their reported MIC
MEASUREMENT_TYPE: MIC (µg/mL)

{"columns": ["COMPOUND", "VALUE_PREFIX", "ENDPOINT_RESULT"],
 "data": [
  ["COc1cc(OC)c2c(c1)c(-c1c(OC)cc3cc4oc(C)cc(=O)c4c(O)c3c1OC)c(O)c1c(=O)cc(C)oc12", "≥", 100],
  ["COc1cc(OC)c2c(O)c3c(=O)cc(C)oc3cc2c1", "≥", 100],
  ["COc1cc(OC)c2c(O)c3c(c(-c4c(OC)cc5cc6oc(C)cc(=O)c6c(O)c5c4OC)c2c1)OC(C)(O)CC3=O (stereo not drawn)", "≥", 100],
  ["COc1cc(OC)c2c(O)c3c(c(-c4c(OC)cc5cc(O)c6c(=O)cc(C)oc6c5c4OC)c2c1)OC(C)(O)CC3=O (stereo not drawn)", "=", 34.1],
  ["COc1cc(OC)c2c(O)c3c(=O)cc(C)oc3c(-c3c(OC)cc4cc5c(c(O)c4c3OC)C(=O)CC(C)(O)O5)c2c1 (stereo not drawn)", "=", 68.2],
  ["COc1cc(OC)c2c(O)c3c(=O)cc(C)oc3c(-c3c(OC)cc4cc(O)c5c(=O)cc(C)oc5c4c3OC)c2c1", "=", 34.1]
]}

====

# TARGET_DESC: E. coli FabI (Escherichia coli, UniProt P0AEK4)
# Sequence (P0AEK4 whole entry): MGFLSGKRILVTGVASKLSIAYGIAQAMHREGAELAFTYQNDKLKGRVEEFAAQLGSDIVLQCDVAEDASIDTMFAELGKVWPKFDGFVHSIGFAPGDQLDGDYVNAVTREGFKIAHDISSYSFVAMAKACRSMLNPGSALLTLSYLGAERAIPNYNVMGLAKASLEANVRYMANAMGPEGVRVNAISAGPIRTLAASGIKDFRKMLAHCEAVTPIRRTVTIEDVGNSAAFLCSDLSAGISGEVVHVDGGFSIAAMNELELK
# ASSAY_INFO: Microscale thermophoresis (MST) binding to FabI
pKd: −log10 of the molar value.
MEASUREMENT_TYPE: pKd

{"columns": ["MOLECULE", "ENDPOINT_RESULT"],
 "data": [
  ["COc1cc(OC)c2c(O)c3c(=O)cc(C)oc3c(-c3c(OC)cc4cc5oc(C)cc(=O)c5c(O)c4c3OC)c2c1", 3.54],
  ["COc1cc(OC)c2c(O)c3c(=O)cc(C)oc3c(-c3c(OC)cc4cc5c(c(O)c4c3OC)C(=O)CC(C)(O)O5)c2c1 (stereo not shown)", 3.48],
  ["COc1cc(OC)c2c(O)c3c(=O)cc(C)oc3c(-c3c(OC)cc4cc(O)c5c(=O)cc(C)oc5c4c3OC)c2c1", 3.67],
  ["COc1cc(OC)c2c(O)c3c(c(-c4c(OC)cc5cc(O)c6c(=O)cc(C)oc6c5c4OC)c2c1)OC(C)(O)CC3=O (stereo not shown)", 3.57]
]}
